- System: NCI-H460 lung
- Test Description: NCI-60 one-dose screen, 48 h (100 = growth as untreated, 0 = no growth, -100 = all killed)
- Test Parameters: 10 µM unless noted
This is part of a sample that, as a whole, favours compounds with a hit. Of some 83,000 tested, about 20% had one in any assay.
Reported growth values are given for each entry in this list.

[
  {
    "Compound": "C=CCN1C(=O)C(CC)(CCC(C)C)C(=O)NC1=S (stereo unspecified)",
    "Unit": "%",
    "growth": 105
  },
  {
    "Compound": "O=C(O)c1cccc(CCl)c1",
    "Unit": "%",
    "growth": 103
  },
  {
    "Compound": "COc1ccc(-c2ccc(OC)c(OC)c2OC)cc1",
    "Unit": "%",
    "growth": 12
  },
  {
    "Compound": "Nc1cccc(CC(=O)Nc2ccc(S(=O)(=O)F)cc2)c1",
    "Unit": "%",
    "growth": 102
  },
  {
    "Compound": "COc1ccc(OC)c(/C=C(/C)[N+](=O)[O-])c1",
    "Unit": "%",
    "growth": 33.1
  },
  {
    "Compound": "N#CC1=C(N)Oc2cc3c(cc2C1c1cccs1)OCO3 (stereo unspecified)",
    "Unit": "%",
    "growth": 15.6
  },
  {
    "Compound": "CCC1([N+](=O)[O-])COP(=O)(NCc2cccnc2)OC1 (stereo unspecified)",
    "Unit": "%",
    "growth": 104
  },
  {
    "Compound": "S=P(NC1CCCCC1)(N1CC1)N1CC1",
    "Unit": "%",
    "growth": 82.8
  },
  {
    "Compound": "CC(/C=N/N=C(N)N)=N\\N=C(N)N",
    "Unit": "%",
    "growth": 82.7
  },
  {
    "Compound": "c1ccc(-c2ccc3ccccc3[o+]2)cc1",
    "Unit": "%",
    "growth": 97.2
  },
  {
    "Compound": "CC[C@]12C=CCN3CC[C@@]4(c5ccc(OC)cc5N(C)[C@H]4[C@@](O)(C(=O)OC)[C@@H]1OC(=O)CCCN1CCN(CCCC(=O)O[C@@H]4[C@]5(CC)C=CCN6CC[C@@]7(c8ccc(OC)cc8N(C)[C@H]7[C@@]4(O)C(=O)OC)[C@@H]65)CC1)[C@@H]32",
    "Unit": "%",
    "growth": -80.3
  }
]
